Measured BUN, listed per entry.
# protocolConditions: rat, in vivo, sc, 50 mg/kg
e = 2'-O-(2-methoxyethyl) (MOE); d = 2'-deoxy (DNA)
assayEndpoint: BUN (mg/dL)

>>> reported("ISIS 417003: MOE gapmer, nucleobases 1275 to 1318 of SEQ ID NO: 1 (Table 8) (antisense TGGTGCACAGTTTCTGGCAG; MOE gapmer, wing and gap sizes not given here)")
9
>>> reported("ISIS 416826: 5-10-5 MOE gapmer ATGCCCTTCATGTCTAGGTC (sugars from the 5' end e5 d10 e5, backbone and methylation of C not given here)")
25
>>> reported("ISIS 416999: MOE gapmer, nucleobases 1275 to 1318 of SEQ ID NO: 1 (Table 8) (antisense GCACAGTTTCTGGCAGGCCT; MOE gapmer, wing and gap sizes not given here)")
2

###

Measured lymphocytes, listed per entry.
# method: Hematology assays in cynomolgus monkeys (Example 45)
# Assay type: in vivo
# protocolConditions: day 64
assayEndpoint: lymphocytes

>>> reported("ISIS 417002: MOE gapmer, nucleobases 1275 to 1318 of SEQ ID NO: 1 (Table 8) (antisense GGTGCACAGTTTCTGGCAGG; MOE gapmer, wing and gap sizes not given here)")
"39%"
>>> reported("ISIS 416838: MOE gapmer, nucleobases 1018 to 1042 of SEQ ID NO: 1 (Table 6) (antisense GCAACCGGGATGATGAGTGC; MOE gapmer, wing and gap sizes not given here)")
"64%"
>>> reported("ISIS 416864: MOE gapmer, nucleobases 1275 to 1318 of SEQ ID NO: 1 (Table 8) (antisense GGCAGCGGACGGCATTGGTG; MOE gapmer, wing and gap sizes not given here)")
"46%"
>>> reported("ISIS 416850: MOE gapmer, nucleobases 1275 to 1318 of SEQ ID NO: 1 (Table 8) (antisense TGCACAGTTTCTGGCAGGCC; MOE gapmer, wing and gap sizes not given here)")
"53%"
>>> reported("ISIS 416858: MOE gapmer, nucleobases 1275 to 1318 of SEQ ID NO: 1 (Table 8) (antisense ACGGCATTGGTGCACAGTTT; MOE gapmer, wing and gap sizes not given here)")
"56%"

###

# System: human Factor 11 mRNA
# method: Antisense inhibition of human Factor 11 in HepG2 cells, electroporation, 8,000 nM (Example 30)
# Format: cell-based
# protocolConditions: electroporation, 8,000 nM antisense oligonucleotide
Strand notation (5' to 3'): a small letter for the sugar, then the base; units joined by * are phosphorothioate-linked, units joined directly phosphodiester-linked; [ ] holds rarer units or linkages, { } end groups; capitals alone tell only the bases. e = 2'-O-(2-methoxyethyl) (MOE); [5mC] = 5-methylcytosine; d = 2'-deoxy (DNA)
Measured Percent inhibition of human Factor 11 mRNA levels, listed per entry.
assayEndpoint: Percent inhibition of human Factor 11 mRNA levels (%)

>>> reported("416860 (antisense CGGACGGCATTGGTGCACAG; 5-10-5 gapmer, further chemistry not given here) [compound 416860]")
89
>>> reported("445522 (antisense eG*e[5mC]*eA*e[5mC]*eA*dG*dT*dT*dT*d[5mC]*dT*dG*dG*e[5mC]*eA*eG*eG*e[5mC]) [compound 445522]")
91
>>> reported("413482 (antisense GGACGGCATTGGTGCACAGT; 5-10-5 MOE gapmer, further chemistry not given here) [compound 413482]")
88
>>> reported("416856 (antisense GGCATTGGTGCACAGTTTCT; 5-10-5 gapmer, further chemistry not given here) [compound 416856]")
84
>>> reported("445517 (antisense eA*e[5mC]*eT*eG*eG*e[5mC]*dA*dG*d[5mC]*dG*dG*dA*d[5mC]*dG*eG*e[5mC]*eA*eT*eT*eG) [compound 445517]")
74
>>> reported("416867 (antisense ACTGGCAGCGGACGGCATTG; 5-10-5 gapmer, further chemistry not given here) [compound 416867]")
85
